# Test system: Escherichia coli TOP10
# assay details: shrunken log2 fold change of peptide-encoding DNA abundance (4.5 h post-induction vs induction); higher = less antimicrobial activity (less host growth inhibition)
# test context: time post-induction: 4.5 h; library: site-saturation at positions 5, 18, 19, 20
Parameter threshold = 0.03. Response is Condition met when shrunken log2 fold change meets or exceeds it, else Condition not met.

{"columns": ["query sequence", "class assignment"],
 "data": [
  ["RRIRVRPPRLPRPRPRPNCTPRP", "Condition not met"],
  ["RRIRSRPPRLPRPRPRPPKMPRP", "Condition not met"],
  ["RRIRIRPPRLPRPRPRPANNPRP", "Condition not met"],
  ["RRIRERPPRLPRPRPRPNGTPRP", "Condition not met"],
  ["RRIRSRPPRLPRPRPRPMVYPRP", "Condition not met"],
  ["RRIRVRPPRLPRPRPRPADQPRP", "Condition not met"],
  ["RRIRDRPPRLPRPRPRPNDWPRP", "Condition not met"],
  ["RRIRQRPPRLPRPRPRPLRVPRP", "Condition met"],
  ["RRIRCRPPRLPRPRPRPATTPRP", "Condition met"]
]}

* * *

# System: Escherichia coli TOP10
# assay details: shrunken log2 fold change of peptide-encoding DNA abundance (4.5 h post-induction vs induction); higher = less antimicrobial activity (less host growth inhibition)
# test context: time post-induction: 4.5 h; library: site-saturation at positions 5, 18, 19, 20
Listed below: shrunken log2 fold change values for each entry.
recorded endpoint: shrunken log2 fold change

{"columns": ["query sequence", "assayed system", "readout value"],
 "data": [
  ["RRIRARPPRLPRPRPRPIEPPRP", "Escherichia coli TOP10", 0.0525],
  ["RRIRERPPRLPRPRPRPEGEPRP", "Escherichia coli TOP10", 0.332],
  ["RRIRLRPPRLPRPRPRPDLHPRP", "Escherichia coli TOP10", -0.0386],
  ["RRIRTRPPRLPRPRPRPFPLPRP", "Escherichia coli TOP10", -0.147],
  ["RRIRARPPRLPRPRPRPAFSPRP", "Escherichia coli TOP10", 0.215],
  ["RRIRNRPPRLPRPRPRPHTPPRP", "Escherichia coli TOP10", -0.317],
  ["RRIRPRPPRLPRPRPRPPDAPRP", "Escherichia coli TOP10", 0.553],
  ["RRIRNRPPRLPRPRPRPPVLPRP", "Escherichia coli TOP10", 0.124],
  ["RRIRHRPPRLPRPRPRPTTVPRP", "Escherichia coli TOP10", -0.0474],
  ["RRIRERPPRLPRPRPRPFYVPRP", "Escherichia coli TOP10", -0.189],
  ["RRIRMRPPRLPRPRPRPWTTPRP", "Escherichia coli TOP10", -0.0163],
  ["RRIRARPPRLPRPRPRPMCNPRP", "Escherichia coli TOP10", 0.186],
  ["RRIRPRPPRLPRPRPRPHGKPRP", "Escherichia coli TOP10", 0.0675],
  ["RRIRMRPPRLPRPRPRPRHTPRP", "Escherichia coli TOP10", 1.15],
  ["RRIRSRPPRLPRPRPRPDTRPRP", "Escherichia coli TOP10", -0.337],
  ["RRIRYRPPRLPRPRPRPPVCPRP", "Escherichia coli TOP10", 0.065],
  ["RRIRARPPRLPRPRPRPTECPRP", "Escherichia coli TOP10", 0.0171],
  ["RRIRYRPPRLPRPRPRPFDPPRP", "Escherichia coli TOP10", -0.199],
  ["RRIRYRPPRLPRPRPRPRILPRP", "Escherichia coli TOP10", -0.276],
  ["RRIRTRPPRLPRPRPRPEQMPRP", "Escherichia coli TOP10", 0.233],
  ["RRIRARPPRLPRPRPRPEPAPRP", "Escherichia coli TOP10", 1.43],
  ["RRIRYRPPRLPRPRPRPSQMPRP", "Escherichia coli TOP10", -0.706],
  ["RRIRKRPPRLPRPRPRPKIQPRP", "Escherichia coli TOP10", 0.113],
  ["RRIRERPPRLPRPRPRPQMLPRP", "Escherichia coli TOP10", -0.0206],
  ["RRIRGRPPRLPRPRPRPAHKPRP", "Escherichia coli TOP10", 0.551],
  ["RRIRPRPPRLPRPRPRPRKKPRP", "Escherichia coli TOP10", 0.0638],
  ["RRIRGRPPRLPRPRPRPFVRPRP", "Escherichia coli TOP10", 0.0432],
  ["RRIRDRPPRLPRPRPRPMGPPRP", "Escherichia coli TOP10", -0.00107],
  ["RRIRTRPPRLPRPRPRPFMTPRP", "Escherichia coli TOP10", -0.12]
]}

* * *

Listed below: shrunken log2 fold change values for each entry.
# System: Escherichia coli TOP10
# assay details: shrunken log2 fold change of peptide-encoding DNA abundance (4.5 h post-induction vs induction); higher = less antimicrobial activity (less host growth inhibition)
# test context: time post-induction: 4.5 h; library: site-saturation at positions 5, 18, 19, 20

{"columns": ["query sequence", "shrunken log2 fold change"],
 "data": [
  ["RRIRDRPPRLPRPRPRPGAPPRP", 0.598],
  ["RRIRIRPPRLPRPRPRPHCSPRP", -1.21],
  ["RRIRQRPPRLPRPRPRPLGIPRP", -0.381],
  ["RRIRIRPPRLPRPRPRPGLCPRP", 0.108],
  ["RRIRPRPPRLPRPRPRPDHLPRP", -0.172],
  ["RRIRWRPPRLPRPRPRPNTWPRP", 0.245],
  ["RRIRWRPPRLPRPRPRPKPIPRP", 0.477],
  ["RRIRVRPPRLPRPRPRPCSTPRP", -0.127],
  ["RRIRYRPPRLPRPRPRPRWIPRP", -0.553],
  ["RRIRERPPRLPRPRPRPVAEPRP", 0.0949],
  ["RRIRHRPPRLPRPRPRPQHGPRP", 0.00949]
]}

* * *

# Test system: Escherichia coli TOP10
# assay details: shrunken log2 fold change of peptide-encoding DNA abundance (4.5 h post-induction vs induction); higher = less antimicrobial activity (less host growth inhibition)
# test context: time post-induction: 4.5 h; library: site-saturation at positions 5, 18, 19, 20

{"columns": ["query sequence", "shrunken log2 fold change"],
 "data": [
  ["RRIRARPPRLPRPRPRPEKMPRP", 0.706],
  ["RRIRIRPPRLPRPRPRPNVVPRP", -0.508],
  ["RRIRWRPPRLPRPRPRPEPGPRP", 0.43],
  ["RRIRYRPPRLPRPRPRPNALPRP", -0.236]
]}

* * *

# System: Escherichia coli TOP10
# assay details: shrunken log2 fold change of peptide-encoding DNA abundance (4.5 h post-induction vs induction); higher = less antimicrobial activity (less host growth inhibition)
# test context: time post-induction: 4.5 h; library: site-saturation at positions 5, 18, 19, 20
recorded endpoint: shrunken log2 fold change

{"columns": ["query sequence", "assayed system", "recorded endpoint", "readout value"],
 "data": [
  ["RRIRCRPPRLPRPRPRPITAPRP", "Escherichia coli TOP10", "shrunken log2 fold change", "-3.59e-05"],
  ["RRIRKRPPRLPRPRPRPTKKPRP", "Escherichia coli TOP10", "shrunken log2 fold change", 0.0465],
  ["RRIRFRPPRLPRPRPRPTMIPRP", "Escherichia coli TOP10", "shrunken log2 fold change", -0.941],
  ["RRIRMRPPRLPRPRPRPSEFPRP", "Escherichia coli TOP10", "shrunken log2 fold change", -0.143],
  ["RRIRMRPPRLPRPRPRPRPNPRP", "Escherichia coli TOP10", "shrunken log2 fold change", 0.903],
  ["RRIRPRPPRLPRPRPRPSLHPRP", "Escherichia coli TOP10", "shrunken log2 fold change", -0.21]
]}

* * *

# Tested on: Escherichia coli TOP10;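 further: peptides expressed intracellularly from a pBAD plasmid library in pooled LB shake-flask culture, induced with 0.3% L-arabinose, DNA abundance read by NGS, three biological replicates, DESeq2 with apeglm shrinkage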
# assay details: shrunken log2 fold change of peptide-encoding DNA abundance (4.5 h post-induction vs induction); higher = less antimicrobial activity (less host growth inhibition)
# test context: time post-induction: 4.5 h; library: site-saturation at positions 5, 18, 19, 20

{"columns": ["query sequence", "shrunken log2 fold change"],
 "data": [
  ["RRIRLRPPRLPRPRPRPINMPRP", -0.482],
  ["RRIRSRPPRLPRPRPRPKGTPRP", -0.237],
  ["RRIRNRPPRLPRPRPRPWFSPRP", -0.796],
  ["RRIRNRPPRLPRPRPRPHVHPRP", -0.109],
  ["RRIRLRPPRLPRPRPRPWNYPRP", -0.43],
  ["RRIRCRPPRLPRPRPRPARFPRP", 0.558],
  ["RRIRRRPPRLPRPRPRPLYAPRP", 0.0633],
  ["RRIRPRPPRLPRPRPRPCKSPRP", -0.0854],
  ["RRIRARPPRLPRPRPRPFKFPRP", 0.0771],
  ["RRIRIRPPRLPRPRPRPMNVPRP", -0.122],
  ["RRIRWRPPRLPRPRPRPELFPRP", -0.0123],
  ["RRIRYRPPRLPRPRPRPLPPPRP", 0.0954],
  ["RRIRQRPPRLPRPRPRPREEPRP", -0.00407],
  ["RRIRVRPPRLPRPRPRPSKAPRP", 0.0587],
  ["RRIRKRPPRLPRPRPRPNQPPRP", 0.146],
  ["RRIRCRPPRLPRPRPRPNWWPRP", 0.32],
  ["RRIRPRPPRLPRPRPRPDNRPRP", 0.0191],
  ["RRIRLRPPRLPRPRPRPVVLPRP", -0.0303],
  ["RRIRIRPPRLPRPRPRPDADPRP", 0.194],
  ["RRIRKRPPRLPRPRPRPFTEPRP", 0.0246],
  ["RRIRLRPPRLPRPRPRPLAWPRP", 0.32],
  ["RRIRWRPPRLPRPRPRPSRSPRP", 0.0592],
  ["RRIRCRPPRLPRPRPRPSADPRP", 0.0289],
  ["RRIRIRPPRLPRPRPRPCLQPRP", -0.0932],
  ["RRIRARPPRLPRPRPRPVARPRP", 0.647],
  ["RRIRNRPPRLPRPRPRPRPPPRP", 1.26],
  ["RRIRMRPPRLPRPRPRPWVFPRP", 0.152],
  ["RRIRCRPPRLPRPRPRPELTPRP", 0.0136],
  ["RRIRWRPPRLPRPRPRPMHDPRP", 0.229],
  ["RRIRDRPPRLPRPRPRPTHVPRP", 0.244],
  ["RRIRYRPPRLPRPRPRPGECPRP", -0.489],
  ["RRIRWRPPRLPRPRPRPPYWPRP", 0.204],
  ["RRIRLRPPRLPRPRPRPWGKPRP", -0.0201],
  ["RRIRWRPPRLPRPRPRPRMTPRP", 0.394],
  ["RRIRGRPPRLPRPRPRPSRIPRP", -0.234],
  ["RRIRHRPPRLPRPRPRPMRCPRP", 0.309],
  ["RRIRMRPPRLPRPRPRPKRVPRP", 0.0291],
  ["RRIRNRPPRLPRPRPRPTDAPRP", -0.15],
  ["RRIRNRPPRLPRPRPRPNFCPRP", -0.0258],
  ["RRIRDRPPRLPRPRPRPEACPRP", 0.644],
  ["RRIRPRPPRLPRPRPRPIDTPRP", -0.35],
  ["RRIRARPPRLPRPRPRPLDVPRP", -0.07],
  ["RRIRQRPPRLPRPRPRPNNWPRP", -0.0942],
  ["RRIRCRPPRLPRPRPRPSRWPRP", 0.599],
  ["RRIRKRPPRLPRPRPRPINDPRP", -0.48],
  ["RRIRARPPRLPRPRPRPISLPRP", -0.0678]
]}

Just for reference, the supplement of paper PMC9112550 is where these values come from.
